From: the supplement of paper PMC10498489

System: HepG2 Srxn1-GFP reporter cells (+30 nM CDDO-Me)
experiment_description: Srxn1-GFP intensity median modified Z-score relative to plate median; higher = stronger NRF2 / oxidative stress reporter activation, active = hit call of the paper
run_parameters: 10 µM; exposure time: 24h
Hit rate of the full screen: of about 2,300 compounds, about 330 (14%) showed activity. Only a sample is shown.
Reported Srxn1-GFP intensity median modified Z-score values follow for various molecules
Hey, just send me the number, nothing else.

molecule	recorded_number
Cc1nc2ccccc2n1Cc1ccc(Cl)cc1	5.5
CCOc1ccc(C(=O)c2ccc(O)c(O)c2O)cc1	0.486
COc1ccc2c(=O)ccoc2c1	0.575
CCN1CCN(C(=O)NC(C(=O)NC2C(=O)N3C2SC(C)(C)[C@@H]3C(=O)O)c2ccccc2)C(=O)C1=O (stereo partly drawn)	0

Problem: // lookup Srxn1-GFP intensity median modified Z-score for NCCC[C@H](N)CC(=O)NC1CNC(=O)C([C@H]2C[C@H](O)NC(N)=N2)NC(=O)C(C=NC(N)=O)NC(=O)[C@H](CO)NC(=O)[C@H](CO)NC1=O (stereo partly drawn)
Result: -0.33

Problem: // lookup Srxn1-GFP intensity median modified Z-score for `Clc1ccc(Cn2c(CN3CCCC3)nc3ccccc32)cc1`
Result: -0.0615

Problem: // lookup Srxn1-GFP intensity median modified Z-score for `CN1C(=O)OC(C)(C)C1=O`
Result: -0.117

Problem: // lookup Srxn1-GFP intensity median modified Z-score for CN1C(CC(=O)c2ccccc2)CCCC1CC(O)c1ccccc1 (stereo not drawn)
Result: -0.349

----------
Test system: HepG2 Srxn1-GFP reporter cells (+30 nM CDDO-Me)
experiment_description: Srxn1-GFP intensity median modified Z-score relative to plate median; higher = stronger NRF2 / oxidative stress reporter activation, active = hit call of the paper
run_parameters: 10 µM; exposure time: 24h
The campaign covered roughly 2,300 compounds. About 330 (14%) showed activity. Only a sample is shown.
Rule: Srxn1-GFP intensity median modified Z-score under -0.3 gives rule not met, otherwise rule met.

Consider the following illustrative entries.
compound	group_label
CC(C)NS(=O)(=O)C1CCN(C(=O)CCS(=O)(=O)C2CCCC2)C1 (stereo not drawn)	rule met
CC1(C)C2CC[C@]3(C)C(C(=O)C=C4C5C[C@@](C)(C(=O)O)CC[C@]5(C)CC[C@]43C)[C@@]2(C)CC[C@@H]1OC(=O)CCC(=O)O (stereo partly drawn) [euspeclibcmpd2080]	rule met
CN1CCN2c3ccccc3Cc3ccccc3C2C1 (stereo not drawn) [euspeclibcmpd961]	rule met
NC(Cc1ccc(O)c(O)c1)C(=O)O (stereo not drawn) [euspeclibcmpd949]	rule not met
CN(CCOc1ccc(Cc2sc(=O)[nH]c2O)cc1)c1ccccn1 [euspeclibcmpd2243]	rule met

Problem: Hello, I need to know if C[C@H](CCC(=O)NCC(=O)O)[C@H]1CCC2C3C(C[C@H](O)[C@@]21C)[C@@]1(C)CC[C@@H](O)CC1C[C@H]3O (stereo partly drawn) [euspeclibcmpd1671] has measured Srxn1-GFP intensity median modified Z-score not below -0.3. Thanks!
Result: rule met

Problem: Hello, I need to know if C[C@](N)(Cc1ccc(O)c(O)c1)C(=O)O [euspeclibcmpd194] has measured Srxn1-GFP intensity median modified Z-score not below -0.3. Thanks!
Result: rule not met

Problem: Hello, I need to know if NCCc1ccc(O)c(O)c1 [euspeclibcmpd2150] has measured Srxn1-GFP intensity median modified Z-score not below -0.3. Thanks!
Result: rule not met

----------
Tested on: HepG2 Srxn1-GFP reporter cells (+30 nM CDDO-Me)
experiment_description: Srxn1-GFP intensity median modified Z-score relative to plate median; higher = stronger NRF2 / oxidative stress reporter activation, active = hit call of the paper
run_parameters: 10 µM; exposure time: 24h
Hit rate of the full screen: of about 2,300 compounds, about 330 (14%) showed activity. The list is a sample of the results.
Group membership follows Srxn1-GFP intensity median modified Z-score per the scheme lower = under -0.06, middle = from -0.06 up to 0.8, upper = 0.8 and over

Consider the following illustrative entries.
compound	group_label
O=C(O)C1CSCN1 (stereo unspecified)	lower
O=C(CCBr)N1CCN(C(=O)CCBr)CC1	upper
CC(=O)OC1CC2C(C)(C)C(O)CCC2(C)C2CCC3(C)C(=CC(=O)OC3c3ccoc3)C12C (stereo unspecified)	middle
CC(=O)O[C@@H]1CC2C(C)(C)C(=O)C=C[C@]2(C)C2CC[C@@]3(C)[C@H](c4ccoc4)OC(=O)C4O[C@]43[C@@]21C (stereo partly specified)	upper
CON=C(C(=O)NC1C(=O)N2C(C(=O)O)=C(CSC(=O)c3ccco3)CSC12)c1csc(=N)[nH]1 (stereo unspecified)	lower
CC(C)(Oc1ccc(Cl)cc1)C(=O)O	lower

Problem: Which Srxn1-GFP intensity median modified Z-score band matches CC1(C)C(=O)C=C[C@@]2(C)C1CC(=O)[C@]1(C)C2CC[C@@]2(C)[C@H](c3ccoc3)OC(=O)C3O[C@]321 (stereo partly specified) ?
Result: upper

Problem: Which Srxn1-GFP intensity median modified Z-score band matches COC(=O)C1OC(=O)C2OC23C1(C)CCC1C2(C)CCC(=O)C(C)(C)C2CC(OC(C)=O)C13C (stereo unspecified) ?
Result: middle

Problem: Which Srxn1-GFP intensity median modified Z-score band matches `COc1[nH]cnc(=NS(=O)(=O)c2ccc(N)cc2)c1OC` ?
Result: lower

Problem: Which Srxn1-GFP intensity median modified Z-score band matches C=CC/C1=C\C(C)C[C@H](C)C[C@H](OC)[C@H]2O[C@@](O)(C(=O)C(=O)N3CCCCC3C(=O)O[C@H](/C(C)=C/C3CC[C@@H](O)[C@H](OC)C3)[C@H](C)[C@@H](O)CC1=O)[C@H](C)C[C@@H]2OC (stereo partly specified) ?
Result: middle

Problem: Which Srxn1-GFP intensity median modified Z-score band matches `CC(C)(CNC(=O)c1cccc(S(=O)(=O)N2CCNC(=O)C2)c1)N1CCOCC1` ?
Result: upper

Problem: Which Srxn1-GFP intensity median modified Z-score band matches CCN(CC)CCOC(=O)C(Cc1cccc2ccccc12)CC1CCCO1 (stereo unspecified) ?
Result: upper

Problem: Which Srxn1-GFP intensity median modified Z-score band matches C[C@]12CCC3c4ccc(OS(=O)(=O)O)cc4CCC3C1CCC2=O (stereo partly specified) ?
Result: lower

Problem: Which Srxn1-GFP intensity median modified Z-score band matches CCN1CCN(C(=O)NC(C(=O)NC2C(=O)N3C(C(=O)O)=C(CSc4nnnn4C)CSC23)c2ccc(O)cc2)C(=O)C1=O (stereo unspecified) ?
Result: lower

Problem: Which Srxn1-GFP intensity median modified Z-score band matches CC1(C)O[C@H]2CC(=O)OC[C@]23[C@H]2CC[C@@]4(C)[C@H](c5ccoc5)OC(=O)C5O[C@]54[C@]2(C)C(=O)C[C@@H]13 (stereo partly specified) ?
Result: middle

Problem: Which Srxn1-GFP intensity median modified Z-score band matches CC(=O)O[C@@H]1CC2C(C)(C)C(=O)CC[C@]2(C)C2CC[C@@]3(C)[C@H](c4ccoc4)OC(=O)C4OC43[C@@]21C (stereo partly specified) ?
Result: upper

Problem: Which Srxn1-GFP intensity median modified Z-score band matches O=C(O)CCCCC1CCSS1 (stereo unspecified) ?
Result: middle

Problem: Which Srxn1-GFP intensity median modified Z-score band matches COC(=O)C1OC(=O)C2OC23[C@@]1(C)CCC1[C@]2(C)C(C[C@@H](O)[C@]13C)C(C)(C)[C@H](OC(C)=O)C[C@@H]2OC(C)=O (stereo partly specified) ?
Result: lower

Problem: Which Srxn1-GFP intensity median modified Z-score band matches CC1=C(C(=O)O)N2C(=O)[C@@H](NC(=O)C(N)c3ccc(O)cc3)[C@H]2SC1 (stereo partly specified) ?
Result: middle

Problem: Which Srxn1-GFP intensity median modified Z-score band matches COC1CC2CCC(C)C(O)(O2)C(=O)C(=O)N2CCCCC2C(=O)OC(C(C)CC2CCC(O)C(OC)C2)CC(=O)/C(C)=C/C(C)C(O)C(OC)C(=O)C(C)CC(C)/C=C/C=C/C=C/1C (stereo unspecified) ?
Result: upper

----------
Tested on: HepG2 Srxn1-GFP reporter cells (+30 nM CDDO-Me)
experiment_description: Srxn1-GFP intensity median modified Z-score relative to plate median; higher = stronger NRF2 / oxidative stress reporter activation, active = hit call of the paper
run_parameters: 10 µM; exposure time: 24h
Out of some 2,300 compounds screened, about 330 (14%) showed activity. Only a sample is shown.
Rule: Srxn1-GFP intensity median modified Z-score under -0.2 gives Condition not met, otherwise Condition met.

molecule	group_label
CC1OC1P(=O)(O)O (configuration not stated) [euspeclibcmpd2281]	Condition not met

Problem: Hello, I need to know if O=C(O)[C@H](O)[C@@H](O)[C@H](O)[C@H](O)CO [euspeclibcmpd2450] has measured Srxn1-GFP intensity median modified Z-score not below -0.2. Thanks!
Result: Condition met

Problem: Hello, I need to know if CC(C)=CCC/C(C)=C/CC/C(C)=C/CC/C(C)=C/CC/C(C)=C/CC/C(C)=C/CC/C(C)=C/CC/C(C)=C/CC/C(C)=C/CO [euspeclibcmpd1640] has measured Srxn1-GFP intensity median modified Z-score not below -0.2. Thanks!
Result: Condition met

Problem: Hello, I need to know if Cc1cnc(C(=O)O)c[n+]1[O-] [euspeclibcmpd1196] has measured Srxn1-GFP intensity median modified Z-score not below -0.2. Thanks!
Result: Condition not met

Problem: Hello, I need to know if CC1CC[C@@]2(OC1)O[C@H]1CC3C4CC[C@@H]5C[C@@H](O)CC[C@]5(C)C4CC[C@]3(C)[C@H]1[C@@H]2C (some centres not stated) [euspeclibcmpd2070] has measured Srxn1-GFP intensity median modified Z-score not below -0.2. Thanks!
Result: Condition not met

Problem: Hello, I need to know if N=c1[nH]c(=NC2CC2)c2ncn(C3C=C[C@@H](CO)C3)c2[nH]1 (some centres not stated) [euspeclibcmpd479] has measured Srxn1-GFP intensity median modified Z-score not below -0.2. Thanks!
Result: Condition not met

Problem: Hello, I need to know if O=c1cc(-c2cc(O)c(O)c(O)c2)oc2cc(O)cc(O)c12 [euspeclibcmpd1548] has measured Srxn1-GFP intensity median modified Z-score not below -0.2. Thanks!
Result: Condition not met

Problem: Hello, I need to know if Clc1ccc(COC(Cn2ccnc2)c2ccc(Cl)cc2Cl)cc1 (configuration not stated) [euspeclibcmpd413] has measured Srxn1-GFP intensity median modified Z-score not below -0.2. Thanks!
Result: Condition met

Problem: Hello, I need to know if CSCCC(NC(=O)[C@H](Cc1c[nH]c2ccccc12)NC(=O)CCNC(=O)OC(C)(C)C)C(=O)N[C@@H](CC(=O)O)C(=O)N[C@@H](Cc1ccccc1)C(N)=O (some centres not stated) [euspeclibcmpd918] has measured Srxn1-GFP intensity median modified Z-score not below -0.2. Thanks!
Result: Condition not met

Problem: Hello, I need to know if C=C(C)[C@H]1C=CC(C(=O)O)CC1 (some centres not stated) [euspeclibcmpd1451] has measured Srxn1-GFP intensity median modified Z-score not below -0.2. Thanks!
Result: Condition met

Problem: Hello, I need to know if C[C@@H](COc1ccccc1)N[C@H](C)[C@H](O)c1ccc(O)cc1 [euspeclibcmpd167] has measured Srxn1-GFP intensity median modified Z-score not below -0.2. Thanks!
Result: Condition met

Problem: Hello, I need to know if Clc1ccc(CSC(Cn2ccnc2)c2ccc(Cl)cc2Cl)cc1 (configuration not stated) [euspeclibcmpd401] has measured Srxn1-GFP intensity median modified Z-score not below -0.2. Thanks!
Result: Condition met
